Numbers sourced from PubChem BioAssay (NCATS).

- Test system: GB4
- Assay info: qHTS profiling for inhibitors of Plasmodium falciparum proliferation (AID 504749); also: nearly all actives have a fitted effect of over 60% in size
- Condition: P. falciparum in erythrocytes, SYBR Green DNA, 72 h; series mostly up to 28.7 µM
- Description: NIH National Institute of Allergy and Infectious Diseases [NIAID] NIH Chemical Genomics Center [NCGC] […] Because mature erythrocytes lack DNA, only Plasmodium-derived DNA is detected. NCGC Assay Protocol Summary: The SYBR Green viability assay was adapted from a method described previously (Plouffe et al., 2008). […] The following morning, fluorescence intensity at 485(14) nm excitation and 535(25) nm emission wavelengths was measured on an EnVision (Perkin Elmer) plate reader. […]
Records with an inconclusive call do not appear. Calls of active or inactive are those of the source. Calls follow the shape of the dose curve; as a rule, active = well fitted inhibition curve with a large enough effect; inconclusive = small, poorly fitted or top-dose-only effect; inactive = flat fitted curve, though single readings scatter.
API: response.call in true (active), false (inactive)

Below, 5 molecules whose answers are already recorded.
Input smiles | Classification
COc1cc(NS(=O)(=O)c2ccc(N)cc2)ncn1 | false
COc1ccc2c(c1)c1c3n2CCN(C)C3=NCC1 | false
CCCCCCCCCCCCCC[N+](C)(C)Cc1ccccc1 | true
O=c1[nH]c(=O)n([C@H]2C[C@H](O)[C@@H](CO)O2)cc1F | false
COc1ccc(C(Cl)=C(c2ccc(OC)cc2)c2ccc(OC)cc2)cc1 | false

Here is the next item to consider.
Exercise: Tell me the assay call for O=C1C(O)=C(O)C(=O)C(O)=C1O please.
Key: false
